Exercise: state measured Solubility for each of the compounds provided.
- protocolNotes: Evaluation of hydrophilicity (solubility in test solvent)
- Format: physicochemical
- testConditions: 25° C.; test solvent 10% by weight dipropylene glycol, 10% ethanol, 80% purified water
Numbers only, in g/100 g test solvent.

Some solved cases for reference:
>>> numericresult("O=C(COc1ccc(C=C2NC(=O)N(CC(=O)OCCOCCO)C2=O)cc1)OCCOCCO")
0.2
>>> numericresult("O=C(CCN1C(=O)NC(=Cc2ccc(OCCOCCO)cc2)C1=O)N(CCO)CCO")
1.5
>>> numericresult("O=C(COc1ccc(C=C2NC(=O)N(CC(=O)N(CCO)CCO)C2=O)cc1)N(CCO)CCO")
1.2

Recorded Solubility for O=C1NC(=Cc2ccc(OCCOCCO)cc2)C(=O)N1CCOCCO , please?
2.0
